Values were extracted from patent US10105357B2.

# Tested on: A375 (Amelanotic Melanoma)
# testSummary: Cell viability analysis, skin cancer A375
# Type: cell-based, human
# experimentalParameters: Homo sapiens, A-375, 72 h, read-out: cell viability (survival rate), A375, drug 10 μM, 72 hours, WST-1, OD450 nm
Counter-ions that a name gives are not always drawn.
Task for the reader: assign each of the following compounds its reported viability at 10 µM.

// query Return the recorded viability at 10 µM value; entry: Cc1ncc([N+](=O)[O-])n1CCO
// result 56.4%

// query Entry C[C@]12C=CC(=O)C=C1CC[C@@H]1[C@@H]2[C@@H](O)C[C@@]2(C)[C@H]1CC[C@]2(O)C(=O)CO [Prednisolone (Hydroretrocortine), Prednisolone] needs its viability at 10 µM filled in; supply it.
// result 71%

// query For the compound CCCN1CCCC[C@H]1C(=O)Nc1c(C)cccc1C [Ropivacaine HCl] , report viability at 10 µM.
// result 71.2%

// query Identify viability at 10 µM associated with the compound Cc1cc2nc3c(=O)[nH]c(=O)nc-3n(C[C@H](O)[C@H](O)[C@H](O)CO)c2cc1C
// result 89.7%

// query Give recorded viability at 10 µM. C[C@@H]1C/C=C/C=C/C=C/C=C/[C@H](O[C@@H]2O[C@H](C)[C@@H](O)[C@H](N)[C@@H]2O)C[C@@H]2O[C@](O)(C[C@@H](O)C[C@H]3O[C@@H]3/C=C/C(=O)O1)C[C@H](O)[C@H]2C(=O)O
// result 82.1%

// query Please list viability at 10 µM recorded for the compound O=C(O)CCCC[C@@H]1SC[C@@H]2NC(=O)N[C@@H]21
// result 71.3%

* * *

# Test system: A375 (Amelanotic Melanoma)
# testSummary: Cell viability analysis, skin cancer A375
# Format: cell-based, human
# experimentalParameters: drug 10 μM, 72 hours, WST-1, OD450 nm
Decision: cell viability (survival rate), A375 beneath 80 gives condition met; cell viability (survival rate), A375 meeting or exceeding 80 gives condition not met.

// query Given CN(C)CCCN1c2ccccc2CCc2ccc(Cl)cc21.Cl [Clomipramine HCl (Anafranil)] , is recorded cell viability (survival rate), A375 strictly lower than 80?
// result condition not met

// query cell viability (survival rate), A375 strictly < 80 for this molecule? C[C@@H]1[C@H](O)[C@@H](C)/C=C/C=C/CC/C=C/C=C/C=C/C=C/C(O[C@H]2O[C@H](C)[C@@H](O)[C@H](N)[C@@H]2O)CC2O[C@](O)(CC(O)C(O)CCC(O)CC(O)CC(O)CC(=O)O[C@H]1C)CC(O)C2C(=O)O (some centres unmarked) [Nystatin (Mycostatin), Nystatin]
// result condition met

// query Given O=C([O-])C(O)[C@H](O)[C@@H](O)[C@H](O)[C@H](O)CO.O=C([O-])C(O)[C@H](O)[C@@H](O)[C@H](O)[C@H](O)CO.[Ca+2] (some centres unmarked) [Calcium Gluceptate] , is recorded cell viability (survival rate), A375 strictly lower than 80?
// result condition met

// query Quick check: does CN(C/C=C/C#CC(C)(C)C)Cc1cccc2ccccc12.Cl [Terbinafine HCl (Lamisil)] have cell viability (survival rate), A375 under 80?
// result condition not met

* * *

So I've got a bunch of compounds here, and I need their viability at 10 µM values.
# System: PC3 (p53−) (Prostate Adenocarcinoma)
# testSummary: Cell viability analysis, prostate cancer PC3
# Assay type: cell-based, human
# experimentalParameters: Homo sapiens, 72 h, read-out: cell viability (survival rate), PC3, drug 10 μM, 72 hours, WST-1, OD450 nm
Structures can show the parent of a compound that is named as a salt.
Dear colleague, please return just the value in %, with no unit written.

// query Retrieve viability at 10 µM measured for CCCCCCCCCC(=O)N[C@@H](Cc1c[nH]c2ccccc12)C(=O)N[C@H](CC(N)=O)C(=O)N[C@@H](CC(=O)O)C(=O)N[C@@H]1C(=O)NCC(=O)N[C@@H](CCCN)C(=O)N[C@@H](CC(=O)O)C(=O)N[C@H](C)C(=O)N[C@@H](CC(=O)O)C(=O)NCC(=O)N[C@H](CO)C(=O)N[C@@H]([C@H](C)CC(=O)O)C(=O)N[C@@H](CC(=O)c2ccccc2N)C(=O)O[C@@H]1C and print it.
// result 79.7

// query Tell me viability at 10 µM reported for Cc1cccc(C(C)c2cnc[nH]2)c1C (stereo not shown) [Medetomidine HCl]
// result 65.6

// query Name the recorded viability at 10 µM of the compound listed here: CCn1cc(C(=O)O)c(=O)c2cnc(N3CCCC3)nc21
// result 107

// query # return recorded viability at 10 µM for input CCOc1ccc(NC(C)=O)cc1
// result 40.4

* * *

# Test system: MKN-45 (Gastric Adenocarcinoma)
# testSummary: Cell viability analysis, gastric cancer MKN-45
# Format: cell-based, human
# experimentalParameters: Homo sapiens, 72 h; MKN-45; repeated experiment; read-out: The results of antibiotic drug inhibiting cancer cell lines (cell viability analysis), MKN-45
Where a name gives a salt, the structure may show the parent alone.
testReadout: viability at 10 µM

// query Indicate its recorded viability at 10 µM; the compound in question is CCC[S+]([O-])c1ccc2[nH]c(NC(=O)OC)nc2c1 (stereo not shown) [Albendazole Oxide (Ricobendazole), Albendazole Oxide]
// result 74.3%

// query // Input: CCC[C@H](NC(=O)[C@@H]1[C@H]2CCC[C@H]2CN1C(=O)[C@@H](NC(=O)[C@@H](NC(=O)c1cnccn1)C1CCCCC1)C(C)(C)C)C(=O)C(=O)NC1CC1 . Output its viability at 10 µM only.
// result 107%

// query # return recorded viability at 10 µM for entry CN(C)C(=O)C(CCN1CCC(O)(c2ccc(Cl)cc2)CC1)(c1ccccc1)c1ccccc1 [Loperamide hydrochloride]
// result 61.5%

// query Hello, please tell me recorded viability at 10 µM for this one: Cc1cc(C(C)(C)C)cc(C)c1CC1=NCCN1 [Xylometazoline HCl]
// result 121%

* * *

Where a name gives a salt, the structure may show the parent alone.
Assay system HCT116 (p53+) (Colorectal Carcinoma); read-out recorded as viability.
# value in %; strip the unit string

// query Name the recorded viability of the item O=c1n(CCCN2CCN(c3cccc(Cl)c3)CC2)nc2ccccn12 [Trazodone hydrochloride (Desyrel), Trazodone hydrochloride] in your answer.
// result 113

// query Answer with reported viability of Cc1cc(C#N)cc(C)c1Oc1nc(Nc2ccc(C#N)cc2)nc(N)c1Br
// result 54.1

// query Please report viability for the following compound: CCCOc1ccc2nc(NC(=O)OC)[nH]c2c1
// result 22.1

// query Tell us which viability value is on record for CCCCCCCCCCCCCCCC[N+](C)(C)CCN(Cc1ccc(OC)cc1)c1ncccn1 [Thonzonium Bromide]
// result 18.8

// query Give the reported viability for this compound. CC[C@H]1OC(=O)[C@H](C)[C@@H](O[C@H]2C[C@@](C)(OC)[C@@H](O)[C@H](C)O2)[C@H](C)[C@@H](O[C@@H]2O[C@H](C)C[C@H](N(C)C)[C@H]2O)[C@](C)(O)C[C@@H](C)CN(C)[C@H](C)[C@@H](O)[C@]1(C)O [Azithromycin Dihydrate]
// result 80.7

// query Consider the compound NC(=O)N/N=C/c1ccc([N+](=O)[O-])o1 . State its measured viability.
// result 110

// query Tell me measured viability for CC(C)CN(C[C@@H](O)[C@H](Cc1ccccc1)NC(=O)O[C@H]1CCOC1)S(=O)(=O)c1ccc(N)cc1 please.
// result 94.5

// query For CC[C@H](C)[C@H]1O[C@]2(CC[C@@H]1C)C[C@@H]1C[C@@H](C/C=C(\C)[C@@H](O[C@H]3C[C@H](OC)[C@@H](O[C@H]4C[C@H](OC)[C@@H](O)[C@H](C)O4)[C@H](C)O3)[C@@H](C)/C=C/C=C3\CO[C@@H]4[C@H](O)C(C)=C[C@@H](C(=O)O1)[C@]34O)O2 , write its viability.
// result 62.7

// query Indicate its recorded viability; the compound in question is CN(C)[C@@H]1C(O)=C(C(N)=O)C(=O)[C@@]2(O)C(O)=C3C(=O)c4c(O)ccc(Cl)c4[C@@](C)(O)[C@H]3C[C@@H]12 [Chlortetracycline HCl]
// result 91.5

// query Identify measured viability associated with CN(C)CCCN1c2ccccc2CCc2ccc(Cl)cc21 [Clomipramine hydrochloride (Anafranil), Clomipramine hydrochloride]
// result 137

// query Look up and report measured viability for this entry: O=C(Nc1ccc([N+](=O)[O-])cc1Cl)c1cc(Cl)ccc1O [Niclosamide (Niclocide)]
// result 23.9

// query Check the records and state viability for Cc1ncc([N+](=O)[O-])n1CCO
// result 98.9

* * *

# Tested on: MKN-45 (Gastric Adenocarcinoma)
# testSummary: Cell viability analysis, gastric cancer MKN-45
# Type: cell-based, human
# experimentalParameters: Homo sapiens, MKN-45; drug 10 μM, 72 hours, WST-1, OD450 nm; read-out: cell viability (survival rate), MKN-45
testReadout: viability at 10 µM (%)
Answer with a number only, understood to be in %.

// query Identify measured viability at 10 µM corresponding to O=C(O)c1ccccc1
// result 43.4

// query Output viability at 10 µM of CCC1(C)CC(=O)NC(=O)C1 [Bemegride]
// result 99.7

// query Return the recorded viability at 10 µM value; entry: Clc1ccc(C(Cn2ccnc2)OCc2c(Cl)cccc2Cl)c(Cl)c1 (stereo not drawn) [Isoconazole nitrate (Travogen), Isoconazole nitrate]
// result 126

// query Name the recorded viability at 10 µM of the molecule listed here: C=C(NC(=O)C(=C)NC(=O)c1csc(C2=N[C@@H]3c4csc(n4)[C@H]4NC(=O)c5csc(n5)[C@H]([C@](C)(O)[C@@H](C)O)NC(=O)[C@H]5CSC(=N5)/C(=C/C)NC(=O)[C@H]([C@@H](C)O)NC(=O)c5csc(n5)[C@]3(CC2)NC(=O)[C@H](C)NC(=O)C(=C)NC(=O)[C@H](C)NC(=O)[C@H]([C@@H](C)CC)N[C@@H]2C=Cc3c([C@H](C)O)cc(nc3[C@H]2O)C(=O)O[C@@H]4C)n1)C(N)=O
// result 56.7

// query Using known records, supply viability at 10 µM for O=C(Nc1ccccc1)c1ccccc1O [Salicylanilide]
// result 83.5

// query Quick one: give measured viability at 10 µM for CCC[S+]([O-])c1ccc2[nH]c(NC(=O)OC)nc2c1 (stereo not drawn) [Albendazole Oxide (Ricobendazole), Albendazole Oxide]
// result 60.8
